inhibition at 5 µM for assorted compounds
- Tested on: RAW264.7
- protocol: Inhibition of LPS-induced nitric oxide production in mouse RAW264.7 cells at 5 uM
- Type: functional

{"compound": "CC(=O)OC[C@]12[C@H](OC(C)=O)[C@H](OC(C)=O)[C@@H]3[C@@H](OC(C)=O)[C@@]14O[C@@]3(C)COC(=O)c1cnccc1C(C)C(C)C(=O)O[C@@H]([C@H](OC(C)=O)[C@@H]2OC(C)=O)[C@]4(C)O (some centres undefined)", "inhibition at 5 µM / %": 48.2}
{"compound": "CC(=O)OC[C@]12[C@H](OC(C)=O)[C@H](OC(C)=O)[C@@H]3[C@@H](OC(C)=O)[C@@]14O[C@@]3(C)COC(=O)c1cnccc1C(C)C(C)C(=O)O[C@@H]([C@H](O)[C@@H]2OC(C)=O)[C@]4(C)O (some centres undefined)", "inhibition at 5 µM / %": 59}
{"compound": "C[C@@H]1C[C@H]2[C@@H]3CCC4=CC(=O)C=C[C@]4(C)[C@@]3(F)[C@@H](O)C[C@]2(C)[C@@]1(O)C(=O)CO", "inhibition at 5 µM / %": 70.4}
{"compound": "CC(=O)OC[C@]12[C@H](OC(C)=O)[C@H](OC(C)=O)[C@@H]3[C@@H](OC(C)=O)[C@@]14O[C@@]3(C)COC(=O)c1cccnc1CCC(C)C(=O)O[C@@H]([C@H](OC(C)=O)[C@@H]2OC(C)=O)[C@]4(C)O (some centres undefined)", "inhibition at 5 µM / %": 54.7}
